Heads up, these compounds all have pEC50 values measured for Tumor necrosis factor receptor superfamily member 10B (Homo sapiens, UniProt O14763).
Please express pEC50 as -log10 of the molar concentration.

Study these solved cases before continuing.
{"COMPOUND": "COc1cccc(N=CCC(=O)c2ccc(Cl)cc2)c1", "pEC50": 4.99}
{"COMPOUND": "CCOC(=O)C(c1nc2ccccc2[nH]1)n1c(-c2cccnc2)nc2ccccc21 (stereo unspecified)", "pEC50": 4.98}
{"COMPOUND": "COc1ccc(CN=Nc2nc3ccccc3c(=O)n2-c2ccccc2)cc1OC", "pEC50": 5.07}
{"COMPOUND": "O=c1[nH]c(N=NCc2ccc3c(c2)OCO3)nc2ccccc12", "pEC50": 4.96}
{"COMPOUND": "Cc1ccc(N=CC(C(=O)c2cccs2)C(=O)C(F)(F)F)cc1 (stereo unspecified)", "pEC50": 5.73}

Here is another compound to look at.
Form field: reported pEC50 of CN(C)c1ccc(N=CCC(=O)c2ccco2)cc1
5.12
